These data points were gathered from patent US4539322A.

The following compounds are shown together with reported pIC50 values.
Tested on: rat aorta
Experiment: Inhibition of calcium-induced contraction of isolated rat aorta strips (reduction of response to added calcium chloride in K+-containing saline)
Type: cell-based
Details: 0.75 h; spirally cut rat aorta strips, 45 millimolar potassium, calcium 2 millimolar, test repeated with compound after 45 minutes; read-out: molar concentration of the compounds required to reduce the response by 50% (IC50)
// pIC50: -log10(molar conc.)

pIC50 for CCOC(=O)C1=C(COCCN2CCN(C(=O)NC3CCCCC3)CC2)NC(C)=C(C(=O)OC)C1c1ccccc1Cl (stereo not shown) is 8.07

Lookup result for CCOC(=O)C1=C(COCCN2CCN(C(=O)c3cccnc3)CC2)NC(C)=C(C(=O)OC)C1c1ccccc1Cl (stereo not shown) ; measured pIC50: 7.88

Summary for this compound, CCOC(=O)C1=C(COCCN2CCN(C(=NS(C)(=O)=O)NC)CC2)NC(C)=C(C(=O)OC)C1c1ccccc1Cl (stereo not shown) : pIC50 is 7.00

Quick note, pIC50 for CCOC(=O)C1=C(COCCN2CCN(C(=O)COC)CC2)NC(C)=C(C(=O)OC)C1c1ccccc1Cl (stereo not shown) landed at 8.20

---
Query CCCNC(=O)N1CCN(CCOCC2=C(C(=O)OCC)C(c3ccccc3Cl)C(C(=O)OC)=C(C)N2)CC1 (stereo not shown) yields pIC50 of 8.11

Record summary for CCOC(=O)NC(=S)N1CCN(CCOCC2=C(C(=O)OCC)C(c3ccccc3Cl)C(C(=O)OC)=C(C)N2)CC1 (stereo not shown) : reported pIC50 = 7.86

For CCOC(=O)C1=C(COCCN2CCN(C(=O)Nc3ccc(C(=O)OCC)cc3)CC2)NC(C)=C(C(=O)OC)C1c1ccccc1Cl (stereo not shown) the compound record lists pIC50 as 7.48
